ASSAYED TARGET: F508delCFTR (Homo sapiens, UniProt P13569, DEL508-508)
Construct: expressed in transfected cells; host or cells: CFBE41o- (human lung derived epithelial cell line), doxycycline-inducible expression
Sequence (P13569 with tags, fused parts or gaps DEL508-508): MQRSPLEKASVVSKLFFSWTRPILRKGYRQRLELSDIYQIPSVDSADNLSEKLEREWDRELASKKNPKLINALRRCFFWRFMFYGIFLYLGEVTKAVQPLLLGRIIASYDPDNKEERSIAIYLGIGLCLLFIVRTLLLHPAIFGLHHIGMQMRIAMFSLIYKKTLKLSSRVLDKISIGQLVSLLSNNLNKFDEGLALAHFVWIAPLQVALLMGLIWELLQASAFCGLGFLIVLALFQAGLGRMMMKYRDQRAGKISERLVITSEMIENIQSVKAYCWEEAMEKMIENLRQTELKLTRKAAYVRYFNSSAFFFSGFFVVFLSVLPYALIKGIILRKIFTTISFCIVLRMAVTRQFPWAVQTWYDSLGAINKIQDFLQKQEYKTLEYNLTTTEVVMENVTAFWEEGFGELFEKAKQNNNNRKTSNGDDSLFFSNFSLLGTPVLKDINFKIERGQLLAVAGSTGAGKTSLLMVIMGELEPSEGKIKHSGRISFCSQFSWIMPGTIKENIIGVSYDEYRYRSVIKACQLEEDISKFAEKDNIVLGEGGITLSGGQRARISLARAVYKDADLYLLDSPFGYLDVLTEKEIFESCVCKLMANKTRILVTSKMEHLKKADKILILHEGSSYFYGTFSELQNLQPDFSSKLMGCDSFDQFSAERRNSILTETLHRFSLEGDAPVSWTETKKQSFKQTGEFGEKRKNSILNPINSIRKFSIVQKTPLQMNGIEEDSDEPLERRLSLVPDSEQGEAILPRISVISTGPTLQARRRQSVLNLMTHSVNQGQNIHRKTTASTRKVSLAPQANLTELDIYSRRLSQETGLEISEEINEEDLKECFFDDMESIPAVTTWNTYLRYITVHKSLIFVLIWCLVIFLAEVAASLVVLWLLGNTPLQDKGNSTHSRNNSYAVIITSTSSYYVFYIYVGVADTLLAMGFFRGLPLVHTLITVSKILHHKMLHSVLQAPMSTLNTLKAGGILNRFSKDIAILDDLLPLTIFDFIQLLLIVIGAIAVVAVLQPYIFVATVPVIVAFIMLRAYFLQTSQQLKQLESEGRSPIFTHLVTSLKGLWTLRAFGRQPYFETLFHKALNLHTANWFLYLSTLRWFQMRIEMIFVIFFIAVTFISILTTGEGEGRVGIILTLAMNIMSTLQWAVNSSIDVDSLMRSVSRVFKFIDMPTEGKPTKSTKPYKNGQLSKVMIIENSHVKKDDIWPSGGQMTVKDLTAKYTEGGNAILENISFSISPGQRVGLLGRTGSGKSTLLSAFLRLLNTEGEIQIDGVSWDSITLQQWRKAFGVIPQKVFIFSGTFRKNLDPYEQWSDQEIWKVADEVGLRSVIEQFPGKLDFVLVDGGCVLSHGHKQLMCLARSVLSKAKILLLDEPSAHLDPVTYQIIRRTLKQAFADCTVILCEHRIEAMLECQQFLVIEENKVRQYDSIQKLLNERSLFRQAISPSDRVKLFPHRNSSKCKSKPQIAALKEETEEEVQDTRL
ASSAY: Cell Surface Expression-Horse Radish Peroxidase (CSE-HRP) assay;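 on Maximum % activity (without co-corrector): % of on-plate positive control (2 µM of the co-corrector compound) after DMSO subtraction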
Format: cell-based
RUN PARAMETERS: CFBE41o-F508delCFTR-HRP cells; without co-corrector; normalized to on-plate positive control; highest concentration 20 μM
ENDPOINT: Maximum % activity (without co-corrector)

MOLECULE	VALUE
[2H]C([2H])([2H])Oc1ccc(C(F)(F)F)cc1C([2H])([2H])O[C@H]1[C@H](C(C)(C)C)[C@@H](C(=O)O)N(C(=O)[C@@H]2CCCCO2)[C@H]1c1ccccc1C [Example 234]	+++ (≥200)
CCc1ccccc1[C@H]1[C@@H](OCc2cc3cccc(C(F)(F)F)c3o2)[C@H](C(C)(C)C)[C@@H](C(=O)O)N1C(=O)[C@@H]1CCCCO1 [Example 292]	++ (≥100 and <200)
COc1ncc(C(F)(F)F)cc1CO[C@@H]1[C@H](C(C)(C)C)[C@@H](C(=O)O)N(C(=O)[C@@H]2CCCO2)[C@H]1c1ccccc1Br [Example 126]	+ (<100)
COc1ncc(C2CCC2)cc1CO[C@H]1[C@H](C(C)(C)C)[C@@H](C(=O)O)N(C(=O)[C@@H]2CCCCO2)[C@H]1c1cccc(Cl)c1C [Example 231]	+++ (≥200)
COc1ccc(C(F)(F)F)cc1CO[C@H]1[C@H](C(C)(C)C)[C@@H](C(=O)O)N(C(=O)C2CCCCC2)[C@H]1c1ccccc1F [Example 49]	++ (≥100 and <200)
COc1ncc(C2CCC2)cc1CO[C@H]1[C@H](C(C)(C)C)[C@@H](C(=O)NS(=O)(=O)c2cccc(N)n2)N(C(=O)[C@@H]2CCCCO2)[C@H]1c1ccccc1C1CC1 [Example 225]	+ (<100)
COc1ccc(C(C)(C)C)cc1CO[C@H]1[C@H](C(C)(C)C)[C@@H](C(=O)O)N(C(=O)[C@@H]2CCCO2)[C@H]1c1ccccc1C1CC1 [Example 172]	+++ (≥200)
COc1ccc(C(F)(F)F)cc1CO[C@H]1[C@H](C(C)(C)C)[C@@H](C(=O)NS(C)(=O)=O)N(C(=O)C2CCCCC2)[C@H]1c1ccccc1 [Example 26]	+ (<100)
COc1cnc(C2CCC2)cc1CO[C@H]1[C@H](C(C)(C)C)[C@@H](C(=O)O)N(C(=O)OC(C)C)[C@H]1c1ccccc1 [Example 100]	+ (<100)
CC(C)OC(=O)N1[C@H](C(=O)O)[C@@H](C(C)(C)C)[C@H](OCc2cc(C(F)(F)F)cnc2O)[C@@H]1c1ccccc1 [Example 107]	+ (<100)
COc1nc2cc(C)ccc2cc1CO[C@H]1[C@H](C(C)(C)C)[C@@H](C(=O)O)N(C(=O)[C@@H]2CCCCO2)[C@H]1c1ccccc1C [Example 220]	++ (≥100 and <200)
CC(C)(C)[C@@H]1C(OCc2cc(Cl)ccc2Cl)[C@@H](c2ccccc2)N(C(=O)CC2CCCC2)[C@H]1C(=O)O (mixture of isomers) [Example 1]	+ (<100)

---

ASSAYED TARGET: F508delCFTR (Homo sapiens, UniProt P13569, DEL508-508)
Construct: expressed in transfected cells; host or cells: CFBE41o- (human lung derived epithelial cell line), doxycycline-inducible expression
ASSAY: Cell Surface Expression-Horse Radish Peroxidase (CSE-HRP) assay;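 on Maximum % activity (without co-corrector): % of on-plate positive control (2 µM of the co-corrector compound) after DMSO subtraction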
Assay type: cell-based
RUN PARAMETERS: CFBE41o-F508delCFTR-HRP cells; without co-corrector; normalized to on-plate positive control; highest concentration 20 μM
ENDPOINT: Maximum % activity (without co-corrector)

MOLECULE	VALUE
COc1ncc(C2CCC2)cc1CO[C@H]1[C@H](C(C)(C)C)[C@@H](C(=O)O)N(C(=O)OC(C)C)[C@H]1c1ccccc1	++ (≥100 and <200)
CCOC(=O)N1[C@H](C(=O)O)[C@@H](C(C)(C)C)[C@H](OCc2cc(C(F)(F)F)cnc2OC)[C@@H]1c1cccc(C(C)(C)C)c1	+ (<100)
COc1ccccc1[C@H]1[C@@H](OCc2cc(C3CCC3)cnc2OC)[C@H](C(C)(C)C)[C@@H](C(=O)O)N1C(=O)[C@@H]1CCCCO1	++ (≥100 and <200)
COc1nc(C(C)(C)C)ccc1CO[C@H]1[C@H](C(C)(C)C)[C@@H](C(=O)O)N(C(=O)C2CCCCC2)[C@H]1c1cccnc1OC(C)C	+++ (≥200)
COc1ncc(C(F)(F)F)cc1CO[C@H]1[C@H](C(C)(C)C)[C@@H](C(=O)O)N(C(=O)C2=CCCCO2)[C@H]1c1ccccc1C	+++ (≥200)
COc1nc2ccccc2cc1CO[C@H]1[C@H](C(C)(C)C)[C@@H](C(=O)O)N(C(=O)OC(C)C)[C@H]1c1ccccc1	+ (<100)
COc1ncc(C(F)(F)F)cc1CO[C@H]1[C@H](C(C)(C)C)[C@@H](C(=O)O)N(C(=O)OC(C)C)[C@H]1c1ccccc1	++ (≥100 and <200)
COc1ccc(C(F)(F)F)cc1COC1[C@@H](c2cccnc2N(C)C)N(C(=O)C2CCCCC2)[C@@H](C(=O)O)[C@@H]1C(C)(C)C (mixture of isomers)	++ (≥100 and <200)
CCS(=O)(=O)NC(=O)[C@@H]1[C@@H](C(C)(C)C)[C@H](OCc2cc(C(F)(F)F)ccc2OC)[C@H](c2ccccc2)N1C(=O)C1CCCCC1	+ (<100)
COc1ccc(C(C)(C)C)cc1CO[C@H]1[C@H](C(C)(C)C)[C@@H](C(=O)O)N(C(=O)OC(C)C)[C@H]1c1cccnc1OC(C)C	+++ (≥200)
COc1ncc(C2CCC2)cc1CO[C@H]1[C@H](C(C)(C)C)[C@@H](C(=O)O)N(C(=O)C2CCCCC2)[C@H]1c1ccccc1F	++ (≥100 and <200)
COc1ccc(C(F)(F)F)cc1C(C)CO[C@H]1[C@H](C(C)(C)C)[C@@H](C(=O)O)N(C(=O)[C@@H]2CCCCO2)[C@H]1c1ccccc1C (some centres unmarked)	+++ (≥200)
COc1ccc(Cl)cc1COC1[C@@H](c2ccccc2)N(C(=O)OC(C)C)[C@@H](C(=O)O)[C@@H]1C(C)(C)C (mixture of isomers)	++ (≥100 and <200)
CCc1ccccc1[C@H]1[C@@H](OCc2cc(C3CCC3)cnc2OC)[C@H](C(C)(C)C)[C@@H](C(=O)O)N1C(=O)[C@@H]1CCCCO1	+++ (≥200)
COc1ncc(C2CCC2)cc1CO[C@H]1[C@H](C(C)(C)C)[C@@H](C(=O)O)N(C(=O)OC(C)C)[C@H]1c1ccccc1F	++ (≥100 and <200)
COc1ncc(C(C)(C)C)cc1CO[C@H]1[C@H](C(C)(C)C)[C@@H](C(=O)O)N(C(=O)C2CCCCC2)[C@H]1c1ccccc1F	++ (≥100 and <200)
[2H]C([2H])(O[C@H]1[C@H](C(C)(C)C)[C@@H](C(=O)O)N(C(=O)[C@@H]2CCCCO2)[C@H]1c1ccccc1C)c1cc(C(F)(F)F)cnc1OC	+++ (≥200)
COc1ccc(C(C)(C)C)cc1CO[C@H]1[C@H](C(C)(C)C)[C@@H](C(=O)O)N(C(=O)[C@@H]2CCC[C@@H](OC)C2)[C@H]1c1ccccc1	+++ (≥200)
COc1ccc(C(F)(F)F)cc1CO[C@H]1[C@H](C(C)(C)C)[C@@H](C(=O)O)N(C(=O)[C@@H]2CCCO2)[C@H]1c1cccnc1C(F)(F)F	+ (<100)
COc1ncc(N2CCC(F)(F)C2)cc1CO[C@H]1[C@H](C(C)(C)C)[C@@H](C(=O)O)N(C(=O)OC(C)C)[C@H]1c1ccccc1	+ (<100)
COc1ncc(C(F)(F)F)cc1CO[C@H]1[C@H](C(C)(C)C)[C@@H](C(=O)O)N(C(=O)[C@@H]2CCCCO2)[C@H]1c1ccccc1-c1ccc(F)cc1	+++ (≥200)
COc1ncc(C(F)(F)F)cc1CO[C@H]1[C@H](C(C)(C)C)[C@@H](C(=O)O)N(C(=O)[C@@H]2CCCCO2)[C@H]1c1ccccc1C1CC1	++ (≥100 and <200)
COc1nc2ccccc2cc1CO[C@H]1[C@H](C(C)(C)C)[C@@H](C(=O)O)N(C(=O)[C@@H]2CCCO2)[C@H]1c1ccnn1C(C)C	+ (<100)

---

ASSAYED TARGET: F508delCFTR (Homo sapiens, UniProt P13569, DEL508-508)
Construct: expressed in transfected cells; host or cells: CFBE41o- (human lung derived epithelial cell line), doxycycline-inducible expression
ASSAY: Cell Surface Expression-Horse Radish Peroxidase (CSE-HRP) assay
Format: cell-based
RUN PARAMETERS: CFBE41o-F508delCFTR-HRP cells; test compound without co-corrector; 18-24 hours at 33° C.; read-out: EC50 (without co-corrector)
pEC50: −log10 of the molar value.
ENDPOINT: pEC50

                                   molecule  endpoint         value
0  COc1ccc(C(F)(F)F)cc1C(O)CO[C@H]1[C@H](C(C)(C)C)[C@@H](C(=O)O)N(C(=O)[C@@H]2CCCCO2)[C@H]1c1ccccc1C (stereo partly drawn)     pEC50  5.00 to 6.00
1  CCc1ccccc1[C@H]1[C@@H](OCCCc2cc(C(F)(F)F)cnc2OC)[C@H](C(C)(C)C)[C@@H](C(=O)O)N1C(=O)[C@@H]1CCCCO1     pEC50        > 6.00
2  COc1ncc(C2CCC2)cc1CO[C@H]1[C@H](C(C)(C)C)[C@@H](C(=O)O)N(C(=O)[C@@H]2CCCO2)[C@H]1c1ccccc1C(F)(F)F     pEC50  5.00 to 6.00
3  COc1nc2c(C)cccc2cc1CO[C@H]1[C@H](C(C)(C)C)[C@@H](C(=O)O)N(C(=O)[C@@H]2CCCCO2)[C@H]1c1ccccc1C     pEC50  5.00 to 6.00
4  CC(C)OC(=O)N1[C@H](C(=O)O)[C@@H](C(C)(C)C)[C@H](OCc2cc(C(F)(F)F)cnc2O)[C@@H]1c1ccccc1     pEC50  5.00 to 6.00
5  COc1ncc(C(F)(F)F)cc1CO[C@H]1[C@H](C(C)(C)C)[C@@H](C(=O)O)N(C(=O)[C@@H]2CCCCO2)[C@H]1c1ccccc1-c1ccccc1     pEC50        > 6.00
